Molecular target: T1, recombinant extracellular domain of CD47 (UniProt Q08722 19-139, limits assumed)
T1 construct: extracellular domain; Analyte flowed over the captured antibodies in SPR; also called CD47-ECD
T1 sequence (Q08722 19-139 limits assumed): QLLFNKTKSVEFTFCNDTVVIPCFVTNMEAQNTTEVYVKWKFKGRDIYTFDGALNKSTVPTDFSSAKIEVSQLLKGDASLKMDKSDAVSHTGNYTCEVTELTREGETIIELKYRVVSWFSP
Test: SPR; antibody captured on anti-human Fc, CD47-ECD flowed 0-100 nM; 1:1 Langmuir
Attribute: kon
Numbers only here, please. The scale is M⁻¹ s⁻¹.

BINDER	ENDPOINT_RESULT
Ab1119/Ab170 (antibody, V domains shown, Variant of AbParental; also called LC Ab1119 / HC Ab170) VH: QMQLVQSGAEVKKPGSSVKVSCKASGFNIKDYYLHWVRQAPGKGLEWMGWIDPDQGDTEYAQKFQGRVTITRDRSTSTAYMELRSLRSEDTAVYYCNAAYGSSSYPMDYWGQGTTVTVSS VL: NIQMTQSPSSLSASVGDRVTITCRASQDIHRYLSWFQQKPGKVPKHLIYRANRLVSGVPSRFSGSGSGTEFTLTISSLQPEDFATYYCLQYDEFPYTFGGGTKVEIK	1.04e+07
Ab356/Ab1120 (antibody, V domains shown, FR and CDR L2 variant; also called HC Ab356 / LC Ab1120) VH: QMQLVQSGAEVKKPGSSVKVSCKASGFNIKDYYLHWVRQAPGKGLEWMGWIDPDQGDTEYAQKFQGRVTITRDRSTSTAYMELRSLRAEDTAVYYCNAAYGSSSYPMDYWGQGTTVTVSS VL: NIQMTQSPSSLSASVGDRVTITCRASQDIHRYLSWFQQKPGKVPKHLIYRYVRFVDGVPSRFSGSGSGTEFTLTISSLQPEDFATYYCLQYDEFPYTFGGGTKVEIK	2.69e+06

We now examine a further binder.
Name the recorded kon of the item Ab480/Ab1127 (antibody, V domains shown, FR and CDR L2 variant; Label printed HC first; r460 used; also called HC Ab480 / LC Ab1127) VH: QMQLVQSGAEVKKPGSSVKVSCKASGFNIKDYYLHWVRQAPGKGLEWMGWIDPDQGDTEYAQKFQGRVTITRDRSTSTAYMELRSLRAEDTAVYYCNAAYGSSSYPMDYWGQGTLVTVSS VL: NIQMTQSPSSLSASVGDRVTITCRASQDIHRYLSWFQQKPGKVPKHLIYRESRFVDGVPSRFSGSGSGTEFTLTISSLQPEDFATYYCLQYDEFPYTFGGGTKVEIK in your answer.
2.57e+06
